Parameter: growth. Scope: all listed entries.
# Tested on: NCI-H460 lung
# MEASUREMENT_NOTES: NCI-60 one-dose screen, 48 h (100 = growth as untreated, 0 = no growth, -100 = all killed)
# MEASUREMENT_PARAMETERS: 10 µM unless noted
The panel holds about 83,000 compounds, 20% with a hit somewhere; the sample as a whole holds those more often.

COMPOUND	growth / %
Cn1cccc1C1CC(=O)N(CCC[Se]C#N)C1=O (stereo not given)	-0.959
O=C1CN=C(c2ccc(Cl)cc2)c2sccc2N1	108
COC(=O)[C@@H](C)C[C@H](Cc1ccccc1)NC(=O)c1csc([C@@H](C[C@H](C(C)C)N(C)C(=O)[C@@H](NC(=O)[C@H]2CCCCN2C)C2CCCCC2)OC(C)=O)n1	1.05
O=C1C(N2CC2)=C(N2CC2)C(=O)C(N2CC2)=C1N1CC1	-30.9
COC(=O)C1OC(Oc2ccc(N(CCCl)CCCl)cc2)C(OC(C)=O)C(OC(C)=O)C1OC(C)=O (stereo not given)	29.3
O=[N+]([O-])c1c(Br)sc(Br)c1[N+](=O)[O-]	75.1
Clc1ccc(COC(Cn2ccnc2)c2ccc(Cl)cc2Cl)cc1 (stereo not given)	33.2
CC[C@]12C=CCN3CC[C@]4(C(=C(C(=O)OC)C1)Nc1cc(OC)c(OC(C)=O)cc14)[C@@H]32	8.27
CC[C@H](C)[C@H](NC(=O)c1cccn1C)C(=O)N(C)[C@H](C[C@@H](OC(C)=O)c1nc(C(=O)N[C@@H](Cc2ccccc2)C[C@H](C)C(=O)OC)cs1)C(C)C	6.58
N#CC1(C#N)C(c2ccc(N(CCCl)CCCl)cc2)OC23CCCCC2C1(C#N)C(=N)O3 (stereo not given)	30.1
Cc1c(O)c(CN(CCCl)CCCl)cc(CN(CCCl)CCCl)c1O	31.4
COC(=O)CC[C@H](Cc1ccccc1)NC(=O)c1csc([C@@H](C[C@H](C(C)C)N(C)C(=O)[C@@H](NC(=O)[C@H]2CCCCN2C)C(C)C)OC(C)=O)n1	21.7
O=C1CC2(CC3(Cl)C(Cl)=C(Cl)C2(Cl)C3(Cl)Cl)C(=O)O1 (stereo not given)	112
CC(C)=CCC[C@H](C(=O)O)[C@@H]1CC[C@]2(C)C3=C(CC[C@@]12C)[C@@]1(C)CC[C@H](O)C(C)(C)[C@@H]1CC3	109
Cc1ccc(S(=O)(=O)C(Cl)(Cl)Cl)cc1	104

* * *

# Tested on: MALME-3M melanoma
# MEASUREMENT_NOTES: NCI-60 one-dose screen, 48 h
# MEASUREMENT_PARAMETERS: 10 µM unless noted
This is part of a sample that, as a whole, favours compounds with a hit. Of some 83,000 tested, about 20% had one in any assay. Activity calls are given as the source filed them. The calls were made as follows: active = growth percent below 10; inactive = the rest.
Outcome codes: active, inactive

COMPOUND	CAT
COc1ccc(/C=C\c2cc(OC)c(OC)c(OC)c2)c(NS(=O)(=O)c2ccc(Cl)cc2)c1O	inactive
CC(C)COC(C[N+](=O)[O-])C(Cl)(Cl)Cl (stereo unspecified)	inactive
O=C1OCC2=C1C(c1ccccc1)c1cc3c(cc1N2)OCO3 (stereo unspecified)	inactive
CCN(CCO)C(Cc1ccccc1)c1ccccc1 (stereo unspecified)	inactive
COC(=O)[C@H](C[C@H](Cc1ccccc1)NC(=O)c1csc([C@@H](C[C@H](C(C)C)N(C)C(=O)[C@@H](NC(=O)[C@H]2CCCCN2C)C(C)C)OC(C)=O)n1)NC(=O)OCc1ccccc1	active
CCOC(=O)[C@@H](C)C[C@H](Cc1ccccc1)NC(=O)c1csc([C@@H](C[C@H](C(C)C)N(C)C(=O)[C@@H](NC(=O)[C@H]2C[C@H](O)CCN2C)C(C)C)OC(C)=O)n1	inactive
O=P(Oc1ccc(Cl)cc1)(N1CC1)N1CC1	inactive
CCN(CC)c1ccc2c(c1)OC(N)=C(C#N)C2c1cc(OC)c2c(c1)OCO2 (stereo unspecified)	inactive
O=C(CN1CCN(C(=O)c2ccco2)CC1)Nc1ccc(Cl)cc1C(=O)c1ccccc1Cl	inactive
CC(C)OC(=O)[C@H](C)NP(=O)(Oc1ccccc1)C1CCCN(O)C1=O (stereo partly specified)	inactive
c1ccc(COc2ccc3[nH]cc(CCN(Cc4ccccc4)Cc4ccccc4)c3c2)cc1	inactive
C1CCC([PH+](C2CCCCC2)C2CCCCC2[PH+](C2CCCCC2)C2CCCCC2)CC1.[Au].[CH-]1CCCCC1CC1CCCC[N-]1 (stereo unspecified)	active
O=[N+]([O-])CC(c1ccccc1Cl)c1c(-c2ccccc2)[nH]c2ccccc12 (stereo unspecified)	inactive
N#CC1C(C#N)C2CCC1C1C2N1c1ccccc1 (stereo unspecified)	inactive
COC(=O)[C@@H](C)C[C@H](Cc1ccccc1)NC(=O)c1nc([C@@H](C[C@H](C(C)C)N(C)C(=O)[C@@H](NC(=O)[C@H]2CC(=O)CCN2C)C(C)C)OC(C)=O)sc1C(C)C	inactive
COC(=O)[C@H](Cc1ccccc1)NNC(=O)c1csc([C@@H](C[C@H](C(C)C)N(C)C(=O)[C@@H](NC(=O)[C@H]2CCCCN2C)C2CC2)OC(C)=O)n1	inactive

* * *

Parameter: growth. Scope: all listed entries.
# Tested on: NCI/ADR-RES ovarian
# MEASUREMENT_NOTES: NCI-60 one-dose screen, 48 h (100 = growth as untreated, 0 = no growth, -100 = all killed)
# MEASUREMENT_PARAMETERS: 10 µM unless noted
This is part of a sample that, as a whole, favours compounds with a hit. Of some 83,000 tested, about 20% had one in any assay.
QUANTITY_NAME: growth (%)

MOLECULE	QUANTITY_NAME	REPORTED_MEASUREMENT
COc1ccc(N(CC(=O)NCCC[Te]c2ccccc2)C(=O)CCSC2=C(C)C(=O)c3ccccc3C2=O)cc1	growth	-36.3
CC12CCC3C(CCC4=CC(=O)CCC43CF)C1CCC2=O (stereo not drawn)	growth	108
CCCOC(=O)N[C@H]1CCc2c(Br)c(OC)c(OC)c(OC)c2-c2ccc(SC)c(=O)cc21	growth	10.4

* * *

# System: COLO 205 colon
# MEASUREMENT_NOTES: NCI-60 one-dose screen, 48 h (100 = growth as untreated, 0 = no growth, -100 = all killed)
# MEASUREMENT_PARAMETERS: 10 µM unless noted
The panel holds about 83,000 compounds, 20% with a hit somewhere; the sample as a whole holds those more often. The source made the active and inactive calls. Rule for the calls: active = growth percent below 10; inactive = the rest.

COMPOUND	growth
Fc1ccc(C2=CCNCC2)cc1	103% (inactive)
CC(C)=CC1C(C(=O)OCc2cccc(Oc3ccccc3)c2)C1(C)C (stereo not drawn)	101% (inactive)
Nc1ccc(Cl)cc1	95.9% (inactive)
CN1C(=O)C23CC4(C56CC78SSC(CO)(C(=O)N7C5Nc5ccccc56)N(C)C8=O)c5ccccc5NC4N2C(=O)C1(CO)SS3 (stereo not drawn)	-87.8% (active)
CC(=O)O[C@H](C[C@H](C(C)C)N(C)C(=O)[C@@H](NC(=O)[C@H]1CCCCN1C)C(C)C)c1nc(C(=O)N[C@@H](Cc2ccccc2)C[C@H](C)C(=O)O)c(C(C)C)s1	-60% (active)
C/C(=C\c1ccn(-c2ccc(N)cc2C(F)(F)F)n1)[C@@H]1C[C@@H]2O[C@]2(C)CCC[C@H](C)[C@H](O)[C@@H](C)C(=O)C(C)(C)[C@@H](O)CC(=O)O1	-6.04% (active)
COc1ccc(/C=C\c2cc(OC)c(OC)c(OC)c2)c(NS(=O)(=O)c2ccc(Cl)cc2)c1O	20.9% (inactive)
Clc1cccc(NCOOC2(OOCNc3cccc(Cl)c3)CCCCC2)c1	96.6% (inactive)
COC(=O)[C@@H](C)C[C@H](Cc1ccccc1)NC(=O)c1csc([C@@H](C[C@H](C(C)C)N(C)C(=O)[C@@H](NC(=O)[C@H]2CCCCN2C)C2CCCCC2)OC(C)=O)n1	-75.7% (active)
CC(=O)OC1CCC2(C)C(CCC3C2CC(=O)C2(C)C3CC(Sc3ccc(N(CCCl)CCCl)cc3)C2C(C)=O)C1 (stereo not drawn)	9.14% (active)
CC[CH2][Sn]([Cl])([Cl])[CH2]CC	44.2% (inactive)
CC[C@H](C)[C@H](NC(=O)C12C3C4C1C1C2C3C41NC(C)=O)C(=O)N(C)[C@H](C[C@@H](OC(C)=O)c1nc(C(=O)N[C@@H](Cc2ccccc2)C[C@H](C)C(=O)OC)cs1)C(C)C (stereo partly drawn)	-26.1% (active)
N#CCCNc1ccccc1	118% (inactive)
ClCCN(CCCl)c1ccc(OCc2ccccc2)cc1	75.9% (inactive)
CN(C)C(=O)Oc1ccccc1	112% (inactive)
CCCCC1(CCC)C(=O)NC(=S)NC1=O	112% (inactive)
CC1=C(CN)C2=C(C)C3(CC3)[C@@](C)(O)C(=O)C2=C1	85.1% (inactive)
CC(=O)O[C@H](C[C@H](C(C)C)N(C)C(=O)[C@@H](NC(=O)[C@H]1CCCCN1C)C(C)C)c1cccc(C(=O)N[C@@H](Cc2ccccc2)C[C@H](C)C(=O)O)n1	-64% (active)
